Listed molecules paired with reported melting point
Measurement type: melting point

>>> reported_value("Nc1nc(-c2ccco2)c2ncn(C(=O)NC3CCCCC3)c2n1 [Example 19]")
"177.6 to 178.2 °C"
>>> reported_value("O=C(Nc1ccccc1)Nc1nc(-c2ccco2)c2nc[nH]c2n1 [Example 23]")
"> 330 °C (dec.)"
>>> reported_value("CCNC(=O)n1cnc2c(-c3ccco3)nc(N)nc21 [Example 24]")
"> 280 °C (dec.)"
>>> reported_value("Nc1nc(-c2ccco2)c2ncn(Cc3ccc(Cl)s3)c2n1 [Example 240]")
"210.9 to 211.5 °C"
>>> reported_value("Nc1nc(-c2ccco2)c2ncn(CC(=O)NCc3ccccc3F)c2n1 [Example 237]")
"291.9 to 292.1 °C"
>>> reported_value("Cn1cncc1-c1nc(N)nc2[nH]cnc12 [Example 209]")
"300 °C (dec.)"
>>> reported_value("Nc1nc(-c2ccco2)c2ncn(Cc3cccc(C(=O)NCc4ccccc4)c3)c2n1 [Example 226]")
"243.2 to 243.8 °C"
>>> reported_value("Cc1noc(C)c1S(=O)(=O)Nc1ccccc1Cn1cnc2c(-c3ccco3)nc(N)nc21 [Example 239]")
"251.4 to 253.1 °C"
>>> reported_value("Cc1ccsc1-c1nc(N)nc2[nH]cnc12 [Example 150, 6-(3-Methyl-2-thienyl)-1H-purine-2-amine]")
"247 to 248 °C"
>>> reported_value("C[C@H](N)Cn1cnc2c(-c3ccco3)nc(N)nc21 [Example 251]")
"247 to 252 °C"

====

Below: a set of entries, each annotated with reported melting point.
Measurement type: melting point

>>> reported_value("Nc1nc(-c2ccc(Cl)s2)c2ncn(C(=O)NCc3ccccc3)c2n1")
"194 to 195 °C (dec.)"
>>> reported_value("Nc1nc(-c2ccco2)c2ncn(C(=O)N3CCCC3)c2n1")
"> 300 °C (dec.)"
>>> reported_value("CC(C)(C)OC(=O)n1ccc2c(Cn3cnc4c(-c5ccco5)nc(N)nc43)cccc21")
"190.4 to 190.5 °C"
>>> reported_value("COc1ccccc1CNC(=O)Cn1cnc2c(-c3ccco3)nc(N)nc21")
"279.9 to 281 °C"
>>> reported_value("COc1cc(Cn2cnc3c(-c4ccco4)nc(N)nc32)cc(OC)c1")
"205.3 to 205.4 °C"
>>> reported_value("Nc1nc(-c2ccco2)c2ncn(Cc3cccc4[nH]ccc34)c2n1")
"305.4 to 306.8 °C"
>>> reported_value("CS(=O)(=O)Nc1cccc(Cn2cnc3c(-c4ccco4)nc(N)nc32)c1")
"171.2 to 171.3 °C"
>>> reported_value("CCOC(=O)Cn1cnc2c(-c3ccco3)nc(N(C)C)nc21")
"180.6 to 181.8 °C"
>>> reported_value("CC(C)(C)NC(=O)n1cnc2c(-c3ccco3)nc(N)nc21")
"295 °C (dec.)"
>>> reported_value("CN(C)C(=O)c1ccc(Cn2cnc3c(-c4ccco4)nc(N)nc32)cc1")
"223.1 to 226.9 °C"
>>> reported_value("CSc1nc(-c2ccco2)c2ncn(C(=O)OC(C)(C)C)c2n1")
"112 to 113 °C"
>>> reported_value("Cc1ccc(-c2nc(N)nc3c2ncn3C(=O)NCc2ccccc2)o1")
"160 °C (dec.)"
>>> reported_value("Nc1nc(-c2cncs2)c2ncn(Cc3ccccc3F)c2n1")
"190.5 to 190.6 °C"
>>> reported_value("Nc1nc(-c2ccco2)c2ncn(CC(=O)Nc3cccnc3)c2n1")
"285.6 to 286.4 °C"
>>> reported_value("Cn1cccc1-c1nc(N)nc2[nH]cnc12")
"> 240 °C (dec.)"
>>> reported_value("CS(=O)(=O)Nc1ccccc1Cn1cnc2c(-c3ccco3)nc(N)nc21")
"254.7 to 255.3 °C"
>>> reported_value("Nc1nc(-c2ccco2)c2ncn(CC(=O)NCc3ccco3)c2n1")
"276.4 to 276.9 °C"
